- Assay name: Cytotoxicity in mock-infected BHK-21 monolayers (MTT)
- Stated conditions: Syrian hamster (Mesocricetus auratus), BHK-21 cell monolayers, mock-infected
Measured metric: CC50

Below: 3 molecules and their reported CC50.
Molecule	CC50
Cc1cc2nn(Cc3cccc(NC(=O)c4ccc(F)cc4)c3)nc2cc1C [25b]	> 100 µM
COc1cc(C(=O)Nc2cccc(Cn3nnc4cc(Cl)c(Cl)cc43)c2)cc(OC)c1OC [41a]	> 100 µM
O=C(Nc1cccc(Cn2nnc3cc(Cl)c(Cl)cc32)c1)c1ccc(Cl)cc1 [43a]	> 100 µM

Incoming: CC50 lookup needed for C[C@@]1(O)[C@H](O)[C@@H](CO)O[C@H]1n1cnc2c(=O)[nH]c(N)nc21 [NM108, 2′-C-methyl-guanosine, reference compound] , thanks.
Outgoing: > 100 µM

Incoming: Lookup COc1cc(C(=O)Nc2ccc(Cn3nnc4c(F)cccc43)cc2)cc(OC)c1OC [21e]
Outgoing: 60 µM

Incoming: Lookup Cc1cc2nnn(Cc3ccc(NC(=O)NC4CCCCC4)cc3)c2cc1C [100b]
Outgoing: > 100 µM

Incoming: Lookup CCCNC(=O)Nc1ccc(Cn2nnc3cc(C)c(C)cc32)cc1 [99b]
Outgoing: > 100 µM

###

# melting point per entry

Incoming: melting point lookup needed for CCNC(=O)Nc1ccc(Cn2nnc3cc(Cl)c(Cl)cc32)cc1 , thanks.
Outgoing: 211 to 212 °C

Incoming: Lookup CCCNC(=O)Nc1ccc(Cn2nnc3cc(F)c(F)cc32)cc1
Outgoing: 286 to 287 °C

Incoming: Lookup COc1ccc(NC(=O)Nc2cccc(Cn3nnc4cc(C)c(C)cc43)c2)cc1
Outgoing: 233 to 235 °C

Incoming: Lookup Cc1cc2nn(Cc3cccc(NC(=O)c4ccc(Br)cc4)c3)nc2cc1C
Outgoing: 267 to 268 °C

Incoming: Lookup CCNC(=O)Nc1cccc(Cn2nc3cc(C)c(C)cc3n2)c1
Outgoing: 218 to 219 °C

###

# melting point per entry

Below: 5 molecules and their reported melting point.
Molecule	melting point
CCCCNC(=O)Nc1ccc(Cn2nnc3cc(Cl)c(Cl)cc32)cc1	216 to 217 °C
Cc1cc2nnn(Cc3cccc(NC(=O)c4ccc(Br)cc4)c3)c2cc1C	237 to 238 °C
CCCC(=O)Nc1ccc(Cn2nnc3c(F)cccc32)cc1	215 to 216 °C
CCCNC(=O)Nc1cccc(Cn2nnc3cc(C)c(C)cc32)c1	189 to 191 °C
Cc1cc2nnn(Cc3cccc(NC(=O)NC(C)(C)C)c3)c2cc1C	189 to 191 °C

Incoming: melting point lookup needed for N#Cc1ccc(C(=O)Nc2cccc(Cn3nnc4cc(Cl)c(Cl)cc43)c2)cc1 , thanks.
Outgoing: 167 to 169 °C

Incoming: Lookup CCCCNC(=O)Nc1cccc(Cn2nc3cc(C)c(C)cc3n2)c1 [32b]
Outgoing: 288 to 289 °C

###

- Assay name: Cytotoxicity in mock-infected MDBK cells (MTT)
- Stated conditions: cattle (Bos taurus), mock-infected
Measured metric: CC50

Below: 5 molecules and their reported CC50.
Molecule	Experimental value
Cc1cc2nn(Cc3cccc(NC(=O)c4ccc(F)cc4)c3)nc2cc1C [25b]	> 100 µM
Cc1cc2nn(Cc3ccc(N)cc3)nc2cc1C [11b]	> 100 µM
COc1cc(C(=O)Nc2ccc(Cn3nnc4c(F)cccc43)cc2)cc(OC)c1OC [21e]	72 µM
NC(=O)c1ncn([C@@H]2O[C@H](CO)[C@@H](O)[C@H]2O)n1 [Ribav, ribavirin, reference compound]	35 µM
COc1cc(C(=O)Nc2cccc(Cn3nnc4cc(Cl)c(Cl)cc43)c2)cc(OC)c1OC [41a]	> 100 µM

Incoming: CC50 lookup needed for O=C(Nc1cccc(Cn2nnc3cc(Cl)c(Cl)cc32)c1)c1ccc(Cl)cc1 [43a] , thanks.
Outgoing: > 100 µM

###

- Assay name: Cytotoxicity in mock-infected BHK-21 monolayers (MTT)
- Stated conditions: Syrian hamster (Mesocricetus auratus), BHK-21 cell monolayers, mock-infected
Measured metric: CC50

Below: 8 compounds and their reported CC50.
Compound	Measured metric	Experimental value
CC(=O)Nc1ccc(Cn2nnc3ccccc32)cc1 [79c]	CC50	86 µM
CC(C)(C)C(=O)Nc1ccc(Cn2nnc3c(F)cccc32)cc1 [18e]	CC50	> 100 µM
Cc1cc2nn(Cc3ccc(N)cc3)nc2cc1C [11b]	CC50	> 100 µM
Nc1cccc(Cn2nnc3cc(Cl)c(Cl)cc32)c1	CC50	57 µM
O=c1cnn([C@@H]2O[C@H](CO)[C@@H](O)[C@H]2O)c(=O)[nH]1 [6az-ur, 6-azauridine, reference compound]	CC50	> 100 µM
Nc1ccc(Cn2nc3cc(F)c(F)cc3n2)cc1 [11d]	CC50	> 100 µM
CCCCNC(=O)Nc1cccc(Cn2nc3cc(C)c(C)cc3n2)c1 [32b]	CC50	> 100 µM
COc1ccc(C(=O)Nc2ccc(Cn3nnc4ccccc43)cc2)cc1 [86c]	CC50	95 µM

Moving on to another compound below.
Incoming: CC50 lookup needed for C[C@@]1(O)[C@H](O)[C@@H](CO)O[C@H]1n1ccc(N)nc1=O [NM107, 2’-C-methylcytidine, reference compound] , thanks.
Outgoing: > 100 µM

###

- Assay name: Cytotoxicity in mock-infected MDBK cells (MTT)
- Stated conditions: cattle (Bos taurus), mock-infected
# CC50 per entry

Below: 3 molecules and their reported CC50.
Molecule	Experimental value
CCCNC(=O)Nc1ccc(Cn2nnc3cc(C)c(C)cc32)cc1 [99b]	> 100 µM
Cc1cc2nnn(Cc3ccc(NC(=O)NC4CCCCC4)cc3)c2cc1C [100b]	> 100 µM
CCCCNC(=O)Nc1cccc(Cn2nc3cc(C)c(C)cc3n2)c1 [32b]	> 100 µM

Incoming: CC50 lookup needed for CC(C)(C)C(=O)Nc1ccc(Cn2nnc3c(F)cccc32)cc1 [18e] , thanks.
Outgoing: > 100 µM

Incoming: Lookup Nc1cccc(Cn2nnc3cc(Cl)c(Cl)cc32)c1 [6a]
Outgoing: > 100 µM

###

- System: YFV
- Assay name: microbe, parasite or virus in culture
- Type: cell-based
- Stated conditions: Yellow fever virus, BHK-21, read-out: YFV EC50
Measured metric: EC50

Molecule	Test system	EC50
O=C(Nc1cccc(Cn2nnc3cc(Cl)c(Cl)cc32)c1)c1ccc(Cl)cc1 [43a]	YFV	> 100 µM
CC(C)(C)C(=O)Nc1ccc(Cn2nnc3c(F)cccc32)cc1 [18e]	YFV	> 100 µM
C[C@@]1(O)[C@H](O)[C@@H](CO)O[C@H]1n1cnc2c(=O)[nH]c(N)nc21 [NM108, 2′-C-methyl-guanosine, reference compound]	YFV	1 µM
Cc1cc2nn(Cc3ccc(N)cc3)nc2cc1C [11b]	YFV	> 100 µM
CCCNC(=O)Nc1ccc(Cn2nnc3cc(C)c(C)cc32)cc1 [99b]	YFV	> 100 µM

Incoming: EC50 lookup needed for Nc1ccc(Cn2nc3cc(F)c(F)cc3n2)cc1 [11d] , thanks.
Outgoing: > 100 µM

Incoming: Lookup COc1cc(C(=O)Nc2cccc(Cn3nnc4cc(Cl)c(Cl)cc43)c2)cc(OC)c1OC [41a]
Outgoing: > 100 µM

Incoming: Lookup CCCCNC(=O)Nc1cccc(Cn2nc3cc(C)c(C)cc3n2)c1 [32b]
Outgoing: > 100 µM

Incoming: Lookup CC(=O)Nc1ccc(Cn2nnc3ccccc32)cc1 [79c]
Outgoing: > 86 µM

Incoming: Lookup O=c1cnn([C@@H]2O[C@H](CO)[C@@H](O)[C@H]2O)c(=O)[nH]1 [6az-ur, 6-azauridine, reference compound]
Outgoing: 46 µM

Incoming: Lookup Cc1cc2nnn(Cc3ccc(NC(=O)NC4CCCCC4)cc3)c2cc1C [100b]
Outgoing: > 100 µM

Incoming: Lookup Cc1cc2nn(Cc3cccc(NC(=O)c4ccc(F)cc4)c3)nc2cc1C [25b]
Outgoing: > 100 µM

###

- Assay name: Cytotoxicity in mock-infected Vero-76 monolayers
- Stated conditions: African green monkey (Cercopithecus aethiops), Vero-76 cells
Measured metric: CC50 (µM)
Just the number in µM, nothing appended.

Molecule	U	CC50
CC(=O)Nc1ccc(Cn2nnc3ccccc32)cc1 [79c]	µM	9

Incoming: CC50 lookup needed for O=C(Nc1cccc(Cn2nnc3cc(Cl)c(Cl)cc32)c1)c1ccc(Cl)cc1 [43a] , thanks.
Outgoing: 9.2

Incoming: Lookup CC(C)(C)C(=O)Nc1ccc(Cn2nnc3c(F)cccc32)cc1 [18e]
Outgoing: 9

Incoming: Lookup COc1cc(C(=O)Nc2cccc(Cn3nnc4cc(Cl)c(Cl)cc43)c2)cc(OC)c1OC [41a]
Outgoing: 10.5

###

- Assay name: Cytotoxicity in mock-infected Vero-76 monolayers
- Stated conditions: African green monkey (Cercopithecus aethiops), Vero-76 cell monolayers, mock-infected
Measured metric: CC50

Below: 4 compounds and their reported CC50.
Compound	CC50
CCCCNC(=O)Nc1cccc(Cn2nc3cc(C)c(C)cc3n2)c1 [32b]	> 100 µM
CC(C)(C)C(=O)Nc1ccc(Cn2nnc3c(F)cccc32)cc1 [18e]	> 100 µM
O=C(Nc1cccc(Cn2nnc3cc(Cl)c(Cl)cc32)c1)c1ccc(Cl)cc1 [43a]	> 100 µM
Nc1cccc(Cn2nnc3cc(Cl)c(Cl)cc32)c1 [6a]	> 100 µM

Moving on to another compound below.
Incoming: CC50 lookup needed for CCCNC(=O)Nc1ccc(Cn2nnc3cc(C)c(C)cc32)cc1 [99b] , thanks.
Outgoing: > 100 µM
